Reference source: patent US20150140169

Biological target: T1, alpha-s1 casein from Bos taurus
T1 chain: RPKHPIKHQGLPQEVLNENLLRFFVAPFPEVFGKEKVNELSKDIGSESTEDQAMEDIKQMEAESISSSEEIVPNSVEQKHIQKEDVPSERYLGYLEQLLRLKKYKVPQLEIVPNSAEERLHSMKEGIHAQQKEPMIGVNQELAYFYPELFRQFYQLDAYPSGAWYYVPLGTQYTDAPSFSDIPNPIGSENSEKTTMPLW
Listed next: entries and their corresponding αs1 CN, 24 hours, 11° C..
Please reply with the bare figure in Volume and do not write the unit itself.

>>> result_value("camel chymosin variant #143 (F223V) (protein) GKVAREPLTSYLDSQYFGKIYIGTPPQEFTVVFDTGSSDLWVPSIYCKSNVCKNHHRFDPRKSSTFRNLGKPLSIHYGTGSMEGFLGYDTVTVSNIVDPNQTVGLSTEQPGEVFTYSEFDGILGLAYPSLASEYSVPVFDNMMDRHLVARDLFSVYMDRNGQGSMLTLGAIDPSYYTGSLHWVPVTLQQYWQFTVDSVTINGVAVACVGGCQAILDTGTSVLVGPSSDILKIQMAIGATENRYGEFDVNCGNLRSMPTVVFEINGRDYPLSPSAYTSKDQGFCTSGFQGDNNSELWILGDVFIREYYSVFDRANNRVGLAKAI")
"4.1e+06"

# input Would you kindly share the measured αs1 CN, 24 hours, 11° C. for camel chymosin variant #161 (L295M) (protein) GKVAREPLTSYLDSQYFGKIYIGTPPQEFTVVFDTGSSDLWVPSIYCKSNVCKNHHRFDPRKSSTFRNLGKPLSIHYGTGSMEGFLGYDTVTVSNIVDPNQTVGLSTEQPGEVFTYSEFDGILGLAYPSLASEYSVPVFDNMMDRHLVARDLFSVYMDRNGQGSMLTLGAIDPSYYTGSLHWVPVTLQQYWQFTVDSVTINGVAVACVGGCQAILDTGTSVLFGPSSDILKIQMAIGATENRYGEFDVNCGNLRSMPTVVFEINGRDYPLSPSAYTSKDQGFCTSGFQGDNNSEMWILGDVFIREYYSVFDRANNRVGLAKAI ?
# output 1.1e+07

# input What measured αs1 CN, 24 hours, 11° C. goes with camel chymosin variant #163 (L295T) (protein) GKVAREPLTSYLDSQYFGKIYIGTPPQEFTVVFDTGSSDLWVPSIYCKSNVCKNHHRFDPRKSSTFRNLGKPLSIHYGTGSMEGFLGYDTVTVSNIVDPNQTVGLSTEQPGEVFTYSEFDGILGLAYPSLASEYSVPVFDNMMDRHLVARDLFSVYMDRNGQGSMLTLGAIDPSYYTGSLHWVPVTLQQYWQFTVDSVTINGVAVACVGGCQAILDTGTSVLFGPSSDILKIQMAIGATENRYGEFDVNCGNLRSMPTVVFEINGRDYPLSPSAYTSKDQGFCTSGFQGDNNSETWILGDVFIREYYSVFDRANNRVGLAKAI ?
# output 1.14e+07

# input Which value of αs1 CN, 24 hours, 11° C. has been reported for camel chymosin variant #140 (F223M) (protein) GKVAREPLTSYLDSQYFGKIYIGTPPQEFTVVFDTGSSDLWVPSIYCKSNVCKNHHRFDPRKSSTFRNLGKPLSIHYGTGSMEGFLGYDTVTVSNIVDPNQTVGLSTEQPGEVFTYSEFDGILGLAYPSLASEYSVPVFDNMMDRHLVARDLFSVYMDRNGQGSMLTLGAIDPSYYTGSLHWVPVTLQQYWQFTVDSVTINGVAVACVGGCQAILDTGTSVLMGPSSDILKIQMAIGATENRYGEFDVNCGNLRSMPTVVFEINGRDYPLSPSAYTSKDQGFCTSGFQGDNNSELWILGDVFIREYYSVFDRANNRVGLAKAI in the records?
# output 1.14e+07
